FYI, the data here is from ChEMBL document CHEMBL4699619.

# target: Serine/threonine-protein kinase PLK1 (Homo sapiens, UniProt P53350)
# Sequence (P53350 whole entry): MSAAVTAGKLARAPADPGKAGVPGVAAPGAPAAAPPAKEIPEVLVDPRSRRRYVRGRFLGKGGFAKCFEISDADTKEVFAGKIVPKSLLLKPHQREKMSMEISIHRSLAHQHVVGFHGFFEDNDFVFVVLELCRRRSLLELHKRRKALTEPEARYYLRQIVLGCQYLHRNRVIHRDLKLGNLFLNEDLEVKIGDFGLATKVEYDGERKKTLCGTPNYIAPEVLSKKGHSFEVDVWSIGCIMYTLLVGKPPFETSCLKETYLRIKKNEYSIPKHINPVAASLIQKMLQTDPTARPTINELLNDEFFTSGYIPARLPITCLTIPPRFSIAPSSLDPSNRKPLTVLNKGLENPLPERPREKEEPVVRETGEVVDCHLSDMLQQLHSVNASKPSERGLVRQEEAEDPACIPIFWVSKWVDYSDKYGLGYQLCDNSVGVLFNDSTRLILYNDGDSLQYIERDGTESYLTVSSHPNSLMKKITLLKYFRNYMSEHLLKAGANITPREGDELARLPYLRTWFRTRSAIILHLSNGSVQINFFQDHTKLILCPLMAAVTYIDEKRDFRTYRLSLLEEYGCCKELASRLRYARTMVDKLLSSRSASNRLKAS
# protocolText: Displacement of 5-carboxyfluorescein-labeled PBD-binding peptide from PLk1 PBD (unknown origin) expressed in bacterial expression system incubated for 10 mins by fluorescence polarization assay
Calls of active or inactive are those of the source. No cut-off for these calls is given here.
Choose one outcome from this list and give only that: active, inactive

Below, 5 molecules whose answers are already recorded.
IN: Hello, I am checking results. What call was entered for CCCN1C(=O)C(=Cc2cn(-c3ccccc3)nc2-c2ccccc2)C(=O)N(CCC)C1=O ?
OUT: inactive

IN: Please indicate how the test categorized O=C1C(=Cc2cn(-c3ccccc3)nc2-c2ccccc2)C(=O)N(CCc2ccccc2)C(=O)N1CCc1ccccc1 .
OUT: inactive

IN: Record lookup: outcome of this test for O=C1NC(=O)C(=Cc2cn(CCNC(=O)c3ccccc3)nc2-c2ccccc2)C(=O)N1 ?
OUT: inactive

IN: Could you please tell me the result logged for O=C1NC(=O)C(=Cc2cn(Cc3ccc(OC(F)(F)F)cc3)nc2-c2ccccc2)C(=O)N1 in this assay?
OUT: inactive

IN: In this assay, the call recorded for O=C1NC(=O)C(=Cc2cn(CCNC(=O)C3CCCCC3)nc2-c2ccccc2)C(=O)N1 was what?
OUT: inactive

---
IN: Recorded test outcome, item O=C1NC(=O)C(=Cc2cn(Cc3cccc(OC(F)(F)F)c3)nc2-c2ccccc2)C(=O)N1
OUT: inactive

IN: Query: recorded result category for CS(=O)(=O)c1ccc(C(=O)NCCn2cc(C=C3C(=O)NC(=O)NC3=O)c(-c3ccccc3)n2)cc1 in this test
OUT: inactive

IN: What was the test verdict on CSc1ccc(Cn2cc(C=C3C(=O)NC(=O)NC3=O)c(-c3ccccc3)n2)cc1 ?
OUT: inactive

IN: Test call for this molecule, please: O=C1NC(=O)C(=Cc2cn(CCCCc3ccccc3)nc2-c2ccccc2)C(=O)N1
OUT: active

IN: Please state the recorded outcome for this molecule: CN1C(=O)C(=Cc2cn(-c3ccccc3)nc2-c2ccccc2)C(=O)N(C)C1=O
OUT: inactive
